Reported pKd values follow for various binders
system-name: T1, SopB FL (Escherichia coli F plasmid, UniProt P62558 1-323)
T1 sequence: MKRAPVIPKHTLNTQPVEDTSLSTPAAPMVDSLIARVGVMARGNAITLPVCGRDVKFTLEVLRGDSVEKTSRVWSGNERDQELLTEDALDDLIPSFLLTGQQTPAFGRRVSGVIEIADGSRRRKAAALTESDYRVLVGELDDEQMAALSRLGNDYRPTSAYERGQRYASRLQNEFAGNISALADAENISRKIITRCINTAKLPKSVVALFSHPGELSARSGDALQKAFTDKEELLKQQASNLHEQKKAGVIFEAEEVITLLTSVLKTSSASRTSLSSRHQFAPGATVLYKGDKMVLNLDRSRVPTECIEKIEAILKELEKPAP
method-summary: fluorescence polarization
pKd: −log10 of the molar value.
endpoint: pKd

binder: sopC 43mer (FP) (dsDNA) DNA 1: GGTCTGATTATTAGTCTGGGACCACGGTCCCACTCGTATCGTC DNA 2: GACGATACGAGTGGGACCGTGGTCCCAGACTAATAATCAGACC
endpoint: pKd
observed-result: 6.49
--
binder: sopC 18mer (FP) (dsDNA) DNA 1: CTGGGACCATGGTCCCAG DNA 2: CTGGGACCATGGTCCCAG
endpoint: pKd
observed-result: 6.65
